- Experiment description: Identification of proteins required for the processing of the EWS-FLI1 nascent transcript;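 also: robust z of luciferase light less the median z of siRNAs with the same seed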
- Test conditions: TC32 Ewing sarcoma NR0B1-luc vs CMV-luc, 48 h; screened at 20 nM (by protocol)
Whole data set: some 59,000 sequences, median the read-out near -0.00055, cut for the lowest 2% near -2. The entries come from a sample that favours the lowest values as a whole.
Threshold rule: seed-corrected z-score greater than or equal to -0.5 is TRUE; below that, FALSE.

-- ask Can UUCGCUGACUCUGUAACCC against CACNB4 be said to have seed-corrected z-score at or above -0.5?
-- reply TRUE

---

- Experiment description: Identification of proteins required for the processing of the EWS-FLI1 nascent transcript;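 also: robust z of luciferase light less the median z of siRNAs with the same seed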
- Test conditions: TC32 Ewing sarcoma NR0B1-luc vs CMV-luc, 48 h; screened at 20 nM (by protocol)
The full ranking holds about 59,000 sequences; the median of the read-out is about -0.00055, and the lowest 2% start at about -2. Only a selection was taken, and the lowest values are over-represented in it overall.
Please map values of seed-corrected z-score to classes as shown: small value (below -0.1), mid value (-0.1 to below 0.2), large value (0.2 or more)

Seq	Class name
UCAACCUUUACUGAAGGCC against ARNTL	small value
UAUCGCUCCUGACUAUUGC against PPP1R10	small value
UUUCCGAUGAUGGUAACCA against OR7C2	large value

# ---- query sequence ----
-- ask // return the class label for ACAUGAUCCAUCCAAAUGC against CD163
-- reply mid value

---

- Experiment description: Identification of proteins required for the processing of the EWS-FLI1 nascent transcript;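 also: robust z of luciferase light less the median z of siRNAs with the same seed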
- Test conditions: TC32 Ewing sarcoma NR0B1-luc vs CMV-luc, 48 h; screened at 20 nM (by protocol)
The full ranking holds about 59,000 sequences; the median of the read-out is about -0.00055, and the lowest 2% start at about -2. This is one part of a sample in which the lowest values are shown more often than they occur.
Experimental readout: seed-corrected z-score
Please reply with the number alone, leaving off any unit.

Some sequences with recorded seed-corrected z-score:
Seq	seed-corrected z-score
UAAGGUUCGACCUGCAGAG against MNX1-AS1	-2.4
UUCCUUUUGCGUCUGGAUC against ZC2HC1C	-1.55
AUGUUUCCCAUAACAGUGG against OR4D2	-3.19

Input UUUCAUGCGACGGUUUUGG against HOXC4 . Output seed-corrected z-score: -0.731

Input UCAGCAUCAACAUAAUGCG against TAS2R40 . Output seed-corrected z-score: -1.07

Input UAUCAUCCAAAACUGUAUC against ASNSD1 . Output seed-corrected z-score: 0.0108

Input UUCAUGUCGAUAACUGUGG against KCNJ15 . Output seed-corrected z-score: -0.324

Input UGACUGUAAACAGAGGCGG against SSR4 . Output seed-corrected z-score: -0.396

Input AUAGAGCCCAUUAUGCUUU against PSG11 . Output seed-corrected z-score: -1.42

---

- Experiment description: Identification of proteins required for the processing of the EWS-FLI1 nascent transcript;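 also: robust z of luciferase light less the median z of siRNAs with the same seed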
- Test conditions: TC32 Ewing sarcoma NR0B1-luc vs CMV-luc, 48 h; screened at 20 nM (by protocol)
Whole data set: some 59,000 sequences, median the read-out near -0.00055, cut for the lowest 2% near -2. This excerpt belongs to a sample that is enriched for the lowest values.
Experimental readout: seed-corrected z-score

Some sequences with recorded seed-corrected z-score:
Seq	Meas value
UGAACUCCUCUGCAUAUUC against HLA-F	0.183
UACUCUUUUCCACGAAUCC against CCDC141	-0.626
UAUCUCCACAUACCCGUUC against INHBA	-0.368
UAAUGCUUGAGGCACUUGG against CALHM2	0.134
AUACAUCCGAUUAAGAGGC against SERINC5	-2.74

Input UAUAUCAAAAUCCACUCGC against NDUFAF6 . Output seed-corrected z-score: 1.27

Input UCUGCUGCUCGUCAAGUUC against MAP2K2 . Output seed-corrected z-score: 1.77

Input UUAUUGUUCUUUCGGAUCC against SELP . Output seed-corrected z-score: 0.564

Input UCGAUGGUAAGGUAAGAGC against DNMT3B . Output seed-corrected z-score: -2.25

---

- Experiment description: Identification of proteins required for the processing of the EWS-FLI1 nascent transcript;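 also: robust z of luciferase light less the median z of siRNAs with the same seed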
- Test conditions: TC32 Ewing sarcoma NR0B1-luc vs CMV-luc, 48 h; screened at 20 nM (by protocol)
The full ranking holds about 59,000 sequences; the median of the read-out is about -0.00055, and the lowest 2% start at about -2. The entries come from a sample that favours the lowest values as a whole.
Please map values of seed-corrected z-score to classes as shown: zone 1: < -0.6; zone 2: ≥ -0.6 and < 0.1; zone 3: ≥ 0.1

Here's what some known entries look like.
Seq	Class name
AUAGUUGCAAUCAAACGAG against SFT2D2	zone 1
UCAUGUAUUGCUGGGUGGG against LETMD1	zone 1
UCACUAAUAGGAUCUUCGC against RAB3GAP1	zone 3
UGCUGUAAAGUUUUAGUCC against SLC35A5	zone 2

-- ask // return the class label for UUAUUGACACGAAUACAUC against BTG3
-- reply zone 3

-- ask // return the class label for AUACGUGAUACUUCCCUCC against MS4A13
-- reply zone 1

---

Form field: seed-corrected z-score (one value per entry).
- Experiment description: Identification of proteins required for the processing of the EWS-FLI1 nascent transcript;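 also: robust z of luciferase light less the median z of siRNAs with the same seed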
- Test conditions: TC32 Ewing sarcoma NR0B1-luc vs CMV-luc, 48 h; screened at 20 nM (by protocol)
Over roughly 59,000 sequences, the read-out has its median near -0.00055; the lowest 2% begin near -2. Many of the other results were omitted from the sample, so the lowest values are more common in it than they were.
Please reply with the number alone, leaving off any unit.

Input UUGCAAUUGAAUUCACAGC against SRI . Output seed-corrected z-score: -0.0706

Input UGAGGGUUUAGCAUCAAGC against PCGF1 . Output seed-corrected z-score: -1.47

Input UAUUAGUCCCGGACGAAUG against SCAF8 . Output seed-corrected z-score: -0.115

Input UGCUGCUUCCCUAAGAUCC against ATG4A . Output seed-corrected z-score: 0.243

Input UAUGAAUCCAGAUUGAACU against CXCL1 . Output seed-corrected z-score: 0.898

---

Form field: seed-corrected z-score (one value per entry).
- Experiment description: Identification of proteins required for the processing of the EWS-FLI1 nascent transcript;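 also: robust z of luciferase light less the median z of siRNAs with the same seed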
- Test conditions: TC32 Ewing sarcoma NR0B1-luc vs CMV-luc, 48 h; screened at 20 nM (by protocol)
The full ranking holds about 59,000 sequences; the median of the read-out is about -0.00055, and the lowest 2% start at about -2. Only a selection was taken, and the lowest values are over-represented in it overall.
Please reply with the number alone, leaving off any unit.

Some sequences with recorded seed-corrected z-score:
Seq	seed-corrected z-score
UCAACACCCAGGUAGCGGA against DUSP26	-2.05
AAUCUCAUGAGUUGCAACC against MMP26	-0.158

Input UAAGCACGAACAGUUAUAG against USP47 . Output seed-corrected z-score: 0.264

Input AUCUGGACCACUAUUUCUU against RSPH9 . Output seed-corrected z-score: 0.909

Input UACGUACUCAUUCUUCAGG against CMC2 . Output seed-corrected z-score: -0.986

---

- Experiment description: Identification of proteins required for the processing of the EWS-FLI1 nascent transcript;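 also: robust z of luciferase light less the median z of siRNAs with the same seed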
- Test conditions: TC32 Ewing sarcoma NR0B1-luc vs CMV-luc (EWS-FLI1 target promoter against control promoter), 48 h; screened at 20 nM (by protocol)
The full ranking holds about 59,000 sequences; the median of the read-out is about -0.00055, and the lowest 2% start at about -2. This excerpt belongs to a sample that is enriched for the lowest values.
Experimental readout: seed-corrected z-score
Please reply with the number alone, leaving off any unit.

Some sequences with recorded seed-corrected z-score:
Seq	Meas value
UCCUCCCUAACAAAUAGGC against NUDT16	-0.295
UGCACGAUCCGUUUGCUUC against RNASE11	-0.108
UAAUUGACCAGCUUACUAC against PRAMEF2	1.04
UUCUGCAUAAGUAGUUUUC against INIP	-2.13

Input UUGUGGUUUAGGGUUUUCU against YBX1 . Output seed-corrected z-score: -2.1

Input AAAGGAGUCAGAUUCAUGC against GPATCH2L . Output seed-corrected z-score: 0.347

Input AAGCAUGUUGGUAACCUCG against PLA2G3 . Output seed-corrected z-score: -2.04

Input AGACCAUCCCACGAAAUGC against PEBP1 . Output seed-corrected z-score: -1.22

Input UGCAGUACUGAAGAUAACG against EOGT . Output seed-corrected z-score: -1.09

Input UUGGGAUAUAUUUAGCGGC against ITGB1BP2 . Output seed-corrected z-score: -2.58

Input UUUGUGGUUAUUCUUUUAU against CDC42EP2 . Output seed-corrected z-score: -0.0752

Input UUUGUUCCUUUUCGAGUUC against CCDC127 . Output seed-corrected z-score: 2.99

Input UGUACAGAGAGGGCAUGUG against BAIAP2L2 . Output seed-corrected z-score: -1.82

Input AAACCCUUCACAGUCUUGG against LOC388955 . Output seed-corrected z-score: 0.158

Input UUCUUAUCAGCAGCUAGUC against CKAP5 . Output seed-corrected z-score: -2.74
